Biological target: HLA-A*0201 (human)
Assay: competition with 125I-labeled probe for purified HLA, gel filtration
Endpoint name: pIC50
pIC50 is a log-scale quantity: -log10 of the concentration expressed in molar.

INPUT: What value of pIC50 has been recorded for this entry: YLVAYQATV (modifications not checked) [HCV NS4 1590 peptide 1013.02]
OUTPUT: 7.70

Source of measurements: patent US20090304746A1
